Give optical density for every item shown.
- experimental system: human Fc (human)
- assay: ELISA, negative control
Numbers only, in OD.

>  <binder>
372_E02 (antibody, V domains shown) VH: EVQLLESGGGLVQPGGSLRLSCAASGFTFSSYGMNWVRQAPGKGLEWVASINYNGGYTSYADSVKGRFTISRDNSKNTLYLQMNSLRAEDTAVYYCARAANWHDTALDYWGQGTLVTVSS VL: DIQMTQSPSSLSASVGDRVTITCRASQSIISYVNWYQQKPGKAPKLVIYAATSRASGVPSRFSGSGSGTDFTLTISSLQPEDFATYYCQQSYDLPLTFGGGTKVEIK

>  <unit text>
OD

>  <quantitative readout>
0.431

$$$$
>  <binder>
373_H09 (antibody, V domains shown) VH: EVQLLESGGGLVQPGGSLRLSCAASGFTFSSYGMNWVRQAPGKGLEWVASINYNSGYKSYADSVKGRFTISRDNSKNTLYLQMNSLRAEDTAVYYCARGANWHDTHLDYWGQGTLVTVSS VL: DIQMTQSPSSLSASVGDRVTITCRASQSIITYLNWYQQKPGKAPKLVIYAATSRASGVPSRFSGSGSGTDFTLTISSLQPEDFATYYCQQSDDSPLTFGGGTKVEIK

>  <unit text>
OD

>  <quantitative readout>
0.166

$$$$
>  <binder>
374_G08 (antibody, V domains shown) VH: EVQLLESGGGLVQPGGSLRLSCAASGFTFDSYSMNWVRQAPGKGLEWVSGINYNGGYTSYADSVKGRFTISRDNSKNTLYLQMNSLRAEDTAVYYCARGANWHDTALDYWGQGTLVTVSS VL: DIQMTQSPSSLSASVGDRVTITCRASQSILTYVNWYQQKPGKAPKLVIYAATSRASGVPSRFSGSGSGTDFTLTISSLQPEDFATYYCQQSYDSPLTFGGGTKVEIK

>  <unit text>
OD

>  <quantitative readout>
0.206

$$$$
>  <binder>
371_E10 (antibody, V domains shown) VH: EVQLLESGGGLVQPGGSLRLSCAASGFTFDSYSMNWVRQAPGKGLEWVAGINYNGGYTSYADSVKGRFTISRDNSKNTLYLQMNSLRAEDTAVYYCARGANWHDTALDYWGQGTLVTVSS VL: DIQMTQSPSSLSASVGDRVTITCRASQSISTYLNWYQQKPGKAPKLLIYAVTSRASGVPSRFSGSGSGTDFTLTISSLQPEDFATYYCQQSYNSPLTFGGGTKVEIK

>  <unit text>
OD

>  <quantitative readout>
0.341

$$$$
>  <binder>
375_B10 (antibody, V domains shown) VH: EVQLLESGGGLVQPGGSLRLSCAASGFTFDSYSMNWVRQAPGKGLEWVSGINYNSGYTSYADSVKGRFTISRDNSKNTLYLQMNSLRAEDTAVYYCARSATWHDTHLDYWGQGTLVTVSS VL: DIQMTQSPSSLSASVGDRVTITCRASQSILSYLNWYQQKPGKAPKLLIYAATSRHSGVPSRFSGSGSGTDFTLTISSLQPEDFATYYCQQSYDLPLTFGGGTKVEIK

>  <unit text>
OD

>  <quantitative readout>
0.17

$$$$

Record optical density per entry; entries follow.
1. 371_D07 (antibody, V domains shown) VH: EVQLLESGGGLVQPGGSLRLSCAASGFTFDDYGMNWVRQAPGKGLEWVANINYNGGYKGYADSVKGRFTISRDNSKNTLYLQMNSLRAEDTAVYYCARAANWHDTHLDYWGQGTLVTVSS VL: DIQMTQSPSSLSASVGDRVTITCRASQSILTYLNWYQQKPGKAPKLVIYAATSRASGVPSRFSGSGSGTDFTLTISSLQPEDFATYYCQQSYELPLTFGGGTKVEIK
2. 369_A12 (antibody, V domains shown) VH: EVQLLESGGGLVQPGGSLRLSCAASGFTFSSYSMHWVRQAPGKGLEWVASINYNSGYTGYADSVKGRFTISRDNSKNTLYLQMNSLRAEDTAVYYCARAATWHDTHLDYWGQGTLVTVSS VL: DIQMTQSPSSLSASVGDRVTITCRASQSILTYLNWYQQKPGKAPKLLIYAATSRHSGVPSRFSGSGSGTDFTLTISSLQPEDFATYYCQQSYDLPLTFGGGTKVEIK

1. 0.299
2. 0.461
